System: Fusarium oxysporum
EXPERIMENTAL_PROTOCOL: MIC broth microdilution (CLSI)
Type: cell-based
COND: Fusarium oxysporum 07-200-3012
PROPERTY: MIC / MEC

1) C[C@@H](c1ncncc1F)[C@](O)(Cn1cncn1)c1ccc(F)cc1F ... 4 µg/mL
2) CCCCCCCCCCn1cc[n+](CC(O)(P(=O)(O)O)P(=O)(O)O)c1 [10-ZOL, Decyl-zoledronate] ... 8 µg/mL
3) CC(=O)N1CCN(c2ccc(OCC3COC(Cn4ccnc4)(c4ccc(Cl)cc4Cl)O3)cc2)CC1 (centres unmarked) ... 16 µg/mL
4) CC[C@H](C)C[C@H](C)CCCCCCCCC(=O)N[C@H]1C[C@@H](O)[C@@H](NCCN)NC(=O)[C@@H]2[C@@H](O)CCN2C(=O)[C@H]([C@H](O)CCN)NC(=O)[C@H]([C@H](O)[C@@H](O)c2ccc(O)cc2)NC(=O)[C@@H]2C[C@@H](O)CN2C(=O)[C@H]([C@@H](C)O)NC1=O ... >16 µg/mL
5) C[C@@H]1[C@H](O)[C@@H](C)/C=C/C=C/C=C/C=C/C=C/C=C/C=C/[C@H](O[C@@H]2O[C@H](C)[C@@H](O)[C@H](N)[C@@H]2O)C[C@@H]2O[C@](O)(C[C@@H](O)C[C@@H](O)[C@H](O)CC[C@@H](O)C[C@@H](O)CC(=O)O[C@H]1C)C[C@H](O)[C@H]2C(=O)O ... 1 µg/mL
